Assay system Acetolactate synthase, chloroplastic (Arabidopsis thaliana, UniProt P17597); read-out recorded as log10 Ki.
Would you kindly interpret these values as log10 of Ki expressed in µM?

[[record]]
sample_smiles = "COc1cc(OC)nc(Oc2cccc3c(C)nn(Cc4cccc(Cl)c4)c(=O)c23)n1"
experimental_readout = "log10 Ki"
readout_number = 2.33

[[record]]
sample_smiles = "CCOC(=O)Cn1nc(C)c2cccc(Oc3nc(OC)cc(OC)n3)c2c1=O"
experimental_readout = "log10 Ki"
readout_number = 2.75

[[record]]
sample_smiles = "COc1cc(OC)nc(Oc2cccc3c(C)nn(Cc4ccc(C)cc4)c(=O)c23)n1"
experimental_readout = "log10 Ki"
readout_number = 2.80

[[record]]
sample_smiles = "COc1cc(OC)nc(Oc2cccc3c(C)nn(Cc4ccccc4)c(=O)c23)n1"
experimental_readout = "log10 Ki"
readout_number = 2.91

[[record]]
sample_smiles = "COc1cc(OC)nc(Oc2cccc3c(C)n[nH]c(=O)c23)n1"
experimental_readout = "log10 Ki"
readout_number = 2.90

[[record]]
sample_smiles = "COc1cc(OC)nc(Oc2cccc3c(C)nn(Cc4cccc(F)c4)c(=O)c23)n1"
experimental_readout = "log10 Ki"
readout_number = 3.15

[[record]]
sample_smiles = "COc1cc(OC)nc(Oc2cccc3c(C)nn(Cc4cccc(Br)c4)c(=O)c23)n1"
experimental_readout = "log10 Ki"
readout_number = 2.88

[[record]]
sample_smiles = "COc1cc(OC)nc(Oc2cccc3c(C)nn(Cc4ccc(Br)cc4)c(=O)c23)n1"
experimental_readout = "log10 Ki"
readout_number = 2.49


# log10 Ki (molecule: COc1cc(OC)nc(Oc2cccc3c(C)nn(Cc4ccc(Cl)cc4)c(=O)c23)n1 ) is 2.31

# log10 Ki (molecule: CO/N=C(/C)c1cccc(Oc2nc(OC)cc(OC)n2)c1C(=O)OC ) is 1.69

# log10 Ki (molecule: COc1cc(OC)nc(Oc2cccc3c(C)nn(Cc4ccccc4C)c(=O)c23)n1 ) is 2.42

# log10 Ki (molecule: CCn1nc(C)c2cccc(Oc3nc(OC)cc(OC)n3)c2c1=O ) is 3.23

# log10 Ki (molecule: COc1cc(OC)nc(Oc2cccc3c(C)nn(Cc4ccccc4Cl)c(=O)c23)n1 ) is 2.32

# log10 Ki (molecule: COc1cc(OC)nc(Oc2cccc3c(C)nn(Cc4ccc(F)cc4F)c(=O)c23)n1 ) is 3.02
